- measured-target: human TLR7 (Homo sapiens (Human))
- Sequence (Q9NYK1 27-1049): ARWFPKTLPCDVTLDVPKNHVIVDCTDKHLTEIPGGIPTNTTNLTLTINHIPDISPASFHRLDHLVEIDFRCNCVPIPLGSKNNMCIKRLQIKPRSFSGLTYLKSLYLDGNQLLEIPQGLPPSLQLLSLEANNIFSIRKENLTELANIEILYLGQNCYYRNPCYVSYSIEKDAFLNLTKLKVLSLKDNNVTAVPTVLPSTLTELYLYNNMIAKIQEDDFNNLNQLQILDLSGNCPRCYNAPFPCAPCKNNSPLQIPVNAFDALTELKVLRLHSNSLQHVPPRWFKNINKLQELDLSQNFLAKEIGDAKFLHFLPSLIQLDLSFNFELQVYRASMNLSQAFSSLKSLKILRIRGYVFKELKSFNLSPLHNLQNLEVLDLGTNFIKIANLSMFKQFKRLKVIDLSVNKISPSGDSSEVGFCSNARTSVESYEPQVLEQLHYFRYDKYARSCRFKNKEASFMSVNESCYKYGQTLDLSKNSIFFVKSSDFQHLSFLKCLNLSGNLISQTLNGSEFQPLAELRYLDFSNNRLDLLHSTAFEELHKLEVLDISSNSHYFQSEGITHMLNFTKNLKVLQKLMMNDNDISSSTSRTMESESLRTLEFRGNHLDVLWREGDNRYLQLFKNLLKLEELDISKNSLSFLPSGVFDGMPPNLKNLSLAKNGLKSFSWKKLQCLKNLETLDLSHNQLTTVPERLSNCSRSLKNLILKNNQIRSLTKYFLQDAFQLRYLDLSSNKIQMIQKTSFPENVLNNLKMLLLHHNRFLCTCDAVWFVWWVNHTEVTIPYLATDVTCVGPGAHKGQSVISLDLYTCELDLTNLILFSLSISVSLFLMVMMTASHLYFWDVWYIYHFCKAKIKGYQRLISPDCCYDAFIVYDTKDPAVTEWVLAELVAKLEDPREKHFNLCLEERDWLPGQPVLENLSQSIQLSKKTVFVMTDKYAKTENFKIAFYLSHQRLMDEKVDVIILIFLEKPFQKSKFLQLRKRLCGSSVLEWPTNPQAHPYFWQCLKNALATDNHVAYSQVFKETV
- assay-protocol: TLR7 inhibition reporter assay (HEK-Blue cells, SEAP reporter, gardiquimod stimulation)
- Type: cell-based
- condition-description: HEK-Blue cells overexpressing human TLR7, gardiquimod 7.5 μM
observed-property: pIC50
Scale: pIC50 equals -log10([C]), with [C] in mol/L.

> print(dat)
                                   compound  obs.value
1  Cc1cc(-c2[nH]c3ccc(C4CCN(C(=O)CNC56CC7CC(CC(O)(C7)C5)C6)CC4)cc3c2C(C)C)cc(C)n1       8.01
2  COc1ncc(CN(C)CC(=O)N2CCC(c3ccc4[nH]c(-c5cc(C)nc(C)c5)c(C(C)C)c4c3)CC2)cn1       8.52
3  Cc1cc(-c2[nH]c3ccc(C4CCN(C(=O)CN(C)CC(C)(C)O)CC4)cc3c2C(C)C)cc(C)n1       8.05
4  Cc1cc(-c2[nH]c3ccc(C4CCN(C5CCOC5)CC4)cc3c2C(C)C)c(C)cn1 (stereo not shown)       8.17
5  COc1cc(-c2[nH]c3ccc(C4CCN(C5CCN(C(C)C)CC5)CC4)cc3c2C(C)C)ccn1       6.85
6  CCc1c(-c2ccnc(N)c2)[nH]c2ccc([C@@H]3CCNC[C@@H]3F)cc12       6.81

Recorded pIC50 for CCc1c(-c2ccnc(C#N)c2)[nH]c2ccc(C3CCNCC3)cc12 , please?
7.02

Recorded pIC50 for CCN(CCO)CC(=O)N1CCC(c2ccc3[nH]c(-c4cc(C)nc(C)c4)c(C(C)C)c3c2)CC1 , please?
8.66

Recorded pIC50 for CCc1c(-c2ccncc2)[nH]c2ccc(C3CCN(C4CC(C)(C)NC(C)(C)C4)CC3)cc12 , please?
6.65

Recorded pIC50 for Cc1cc(-c2[nH]c3ccc(C4CCN(C5CCOC6CCCC65)CC4)cc3c2C(C)C)cc(C)n1 (stereo not shown) , please?
7.78

Recorded pIC50 for Cc1cc(-c2[nH]c3ccc(C4CCN(C(=O)Cn5nnnc5C)CC4)cc3c2C(C)C)cc(C)n1 , please?
8.32

Source of measurements: patent US10660877B2
